Consider the following binders and their measured koff readings.
- Study System: T1, PD-1 molecule (refolded, purified and biotinylated PD-1 of Example 2) (UniProt Q15116 33-150, biotinylated with BirA enzyme (site not stated))
- T1 construct: also called Programmed Death-1
- T1 sequence (Q15116 33-150 limits assumed): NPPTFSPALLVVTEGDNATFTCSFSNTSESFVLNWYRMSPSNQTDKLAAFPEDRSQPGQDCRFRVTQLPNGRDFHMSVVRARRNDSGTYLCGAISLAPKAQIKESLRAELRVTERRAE
- Assay Comment: SPR (BIAcore T200), single-cycle kinetics; biotinylated PD-1 captured via streptavidin, PDL-1 variant in solution
I only need the number, in s⁻¹, no unit after it.

Binder	koff / s⁻¹
high affinity PDL-1 molecule L22A5 (ligand) FTVTVPKDLYVVEYGSNMTIECKFPVEKQLDLAALQVHWFMEDKNIPSFVHGEEDLKVQHSSYRQRARLLKDQLSLGNAALQITDVKLQDAGVYRCMISYGGADYKRITVKVNAPYNKINQRILVVDPVTSEHELTCQAEGYPKAEVIWTSSDHQVLSGKTTTTNSKREEKLFNVTSTLRINTTTNEIFYCTFRRLDPEENHTAELVIPEL	0.0559

[Q] Output measured koff for this item: high affinity PDL-1 molecule L2D7 (ligand) FTVTVPKDLYVVEYGSNMTIECKFPVEKQLDLAALEVHWFMEDKNILSFVHGEEDLKVQHSSYRQRARLLKDQLSLGNAALQITDVKLQDAGVYRCMISYGGADYKRITVKVNAPYNKINQRILVVDPVTSEHELTCQAEGYPKAEVIWTSSDHQVLSGKTTTTNSKREEKLFNVTSTLRINTTTNEIFYCTFRRLDPEENHTAELVIPEL
[A] 0.123

[Q] Output measured koff for this item: high affinity PDL-1 molecule L3B3d (ligand) WTVTVPKDLYVVEYGSNMTIECKFPVEKQLDLAALQVFWMMEDKNILSFVHGEEDLKVQHSSYRQRARLLKDQLSLGNAALQITDVKLQDAGVYVCLIAYKGADYKRITVKVNAPYNKINQRILVVDPVTSEHELTCQAEGYPKAEVIWTSSDHQVLSGKTTTTNSKREEKLFNVTSTLRINTTTNEIFYCTFRRLDPEENHTAELVIPEL
[A] 0.0526

[Q] Output measured koff for this item: high affinity PDL-1 molecule L2B8 (ligand) FTVTVPKDLYVVEYGSNMTIECKFPVEKQLDLAALQVHWFMEDKNIVSFVHGEEDLKVQHSSYRQRARLLKDQLSLGNAALQITDVKLQDAGVYRCMISYGGADYKRITVKVNAPYNKINQRILVVDPVTSEHELTCQAEGYPKAEVIWTSSDHQVLSGKTTTTNSKREEKLFNVTSTLRINTTTNEIFYCTFRRLDPEENHTAELVIPEL
[A] 0.15

[Q] Output measured koff for this item: high affinity PDL-1 molecule L2G10 (ligand) FTVTVPKDLYVVEYGSNMTIECKFPVEKQLDLAALQVHWFMEDKNIYSFVHGEEDLKVQHSSYRQRARLLKDQLSLGNAALQITDVKLQDAGVYRCMISYGGADYKRITVKVNAPYNKINQRILVVDPVTSEHELTCQAEGYPKAEVIWTSSDHQVLSGKTTTTNSKREEKLFNVTSTLRINTTTNEIFYCTFRRLDPEENHTAELVIPEL
[A] 0.178

[Q] Output measured koff for this item: high affinity PDL-1 molecule L1C2 (ligand) FTVTVPKDLYVVEYGSNMTIECKFPVEKQLDLAALQVNWFMEDKNIIQFVHGEEDLKVQHSSYRQRARLLKDQLSLGNAALQITDVKLQDAGVYVCLISYGGADYKRITVKVNAPYNKINQRILVVDPVTSEHELTCQAEGYPKAEVIWTSSDHQVLSGKTTTTNSKREEKLFNVTSTLRINTTTNEIFYCTFRRLDPEENHTAELVIPEL
[A] 0.0376
